- Tested on: Klebsiella pneumoniae
- protocol_details: Antimicrobial activity against Klebsiella pneumoniae VT 1367 by broth microdilution method
- Type: functional

| mol_smiles | MIC (µg/mL) |
| --- | --- |
| CC1(C)S[C@@H]2[C@H](NC(=O)[C@H](N)c3ccccc3)C(=O)N2[C@H]1C(=O)O | 64 |
| CO[C@H]1/C=C/O[C@@]2(C)Oc3c(C)c(O)c4c(O)c(c(/C=N/N5CCN(C)CC5)c(O)c4c3C2=O)NC(=O)/C(C)=C\C=C\[C@H](C)[C@H](O)[C@@H](C)[C@@H](O)[C@@H](C)[C@H](OC(C)=O)[C@@H]1C | 16 |
| CO/N=C(\C(=O)N[C@@H]1C(=O)N2C(C(=O)O)=C(COC(C)=O)CS[C@H]12)c1csc(N)n1 | 0.06 |
| C[C@H]1COc2c(N3CCN(C)CC3)c(F)cc3c(=O)c(C(=O)O)cn1c23.C[C@H]1COc2c(N3CCN(C)CC3)c(F)cc3c(=O)c(C(=O)O)cn1c23.O | 0.15 |
